System: LU-139 (Small Cell Lung Carcinoma)
Assay: combination Emax (second highest fraction inhibited in the dose matrix, 72 h); higher = more inhibition; extreme values may be limits of the assay
property_label: combination Emax
Lab note: record just the number, no unit beside it.

[
  {
    "compound": "CN(CCO)CC[C@H](CSc1ccccc1)Nc1ccc(S(=O)(=O)NC(=O)c2ccc(N3CCC([C@@H](O)c4ccccc4-c4ccc(Cl)cc4)CC3)cc2)cc1S(=O)(=O)C(F)(F)F [AZD4320] + Cc1cc2ncnn2cc1Nc1ncc2c(n1)n(C1CCOCC1)c(=O)n2C [AZD7648] (first compound max 1 µM, 7x7, partner max 10 µM)",
    "property_label": "combination Emax",
    "recorded_number": 0.937
  }
]

Reported combination Emax ( CN(CCO)CC[C@H](CSc1ccccc1)Nc1ccc(S(=O)(=O)NC(=O)c2ccc(N3CCC([C@@H](O)c4ccccc4-c4ccc(Cl)cc4)CC3)cc2)cc1S(=O)(=O)C(F)(F)F [AZD4320] + Cn1cnc2c(F)c(Nc3ccc(Br)cc3Cl)c(C(=O)NOCCO)cc21 [Selumetinib] (first compound max 1 µM, 7x7, partner max 3 µM) ) = 0.928
